targetSystem: Trace amine-associated receptor 1 (Homo sapiens)
testDescription: TAAR1 agonist activity of antagonist analogs, SAR follow-up, counter-screen for TAAR1 antagonist project, cell-based, fluorescence, human, MedChem round 2 (AID 1053182)
details: TAAR1-expressing cells, cAMP fluorescence agonist mode
The source made the active and inactive calls. The rule behind the calls is not given here.
// values below are reported EC50

Here are 5 compounds together with their reported answers.
compound="CC(CN1CCCC1Cc1ccccc1)C(=O)c1ccc2c(c1)OCCO2 (configuration not stated)" testvalue="245 nM"
compound=N#Cc1c(C(F)(F)F)cc(-c2ccc(Cl)cc2)nc1SCC(=O)Nc1ncccn1 testvalue="> 29900 nM (inactive)"
compound=N#Cc1c(C(F)(F)F)cc(-c2ccc(Cl)cc2)nc1SCC(=O)N1CCCC1 testvalue="> 29900 nM (inactive)"
compound=N#Cc1c(C(F)(F)F)cc(-c2ccc(Cl)cc2)nc1SCC(=O)N1CCCCCC1 testvalue="> 29900 nM (inactive)"
compound="Cc1ccc(C(=O)CCN2CCC(c3ccccc3)C2)cc1 (configuration not stated)" testvalue="282 nM"

EC50 recorded for this compound, COc1cc(C(=O)CCN2CCC(c3ccccc3)C2)cc(OC)c1OC (configuration not stated) , is 122 nM

Recorded EC50 (compound O=C(CCN1CCC(c2ccccc2)C1)c1ccccc1 (configuration not stated) ): 100 nM

Data provenance is PubChem BioAssay AID1053182.
